Biological target: Cathepsin S (Homo sapiens) (UniProt P25774)
Sequence (P25774 115-331 limits assumed): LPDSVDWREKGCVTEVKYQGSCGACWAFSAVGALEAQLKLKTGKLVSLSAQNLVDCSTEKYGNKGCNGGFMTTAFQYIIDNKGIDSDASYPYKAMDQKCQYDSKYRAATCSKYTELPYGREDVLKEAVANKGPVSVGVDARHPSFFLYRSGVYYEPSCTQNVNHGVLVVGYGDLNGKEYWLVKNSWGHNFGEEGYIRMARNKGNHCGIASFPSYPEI
Assay: Inhibition of human cathepsin S assessed as ratio of Kinact/Ki using Z-Phe-Val-Arg-pNA as substrate incubated for 60 mins by fluorometric assay
Mark met only when Ratio stays strictly below 600 M⁻¹ s⁻¹. Values equal to the cut-off are not met.

Compound	Assay system	Assigned category
CC(C)C[C@H](NC(=O)c1ccc(-c2cc3cc4c5c(c3oc2=O)CCCN5CCC4)cc1)C(=O)NC/C=C/C(=O)N(Cc1ccccc1)Cc1ccccc1	Cathepsin S (Homo sapiens) (UniProt P25774)	not met
CC(C)C[C@H](NC(=O)OC(C)(C)C)C(=O)NC/C=C/C(=O)N(Cc1ccccc1)Cc1ccccc1	Cathepsin S (Homo sapiens) (UniProt P25774)	met
CCCC[C@H](NC(=O)CCCC[N+]1=C(/C=C/C=C/C=C2/N(C)c3ccccc3C2(C)C)C(C)(C)c2ccccc21)C(=O)N[C@@H](CC(C)C)C(=O)NC/C=C/C(=O)N(Cc1ccccc1)Cc1ccccc1	Cathepsin S (Homo sapiens) (UniProt P25774)	met
CCCC[C@H](NC(=O)OC(C)(C)C)C(=O)N[C@@H](CC(C)C)C(=O)NC/C=C/C(=O)N(Cc1ccccc1)Cc1ccccc1	Cathepsin S (Homo sapiens) (UniProt P25774)	met
CC(C)C[C@H](NC(=O)CCCC[N+]1=C(/C=C/C=C/C=C2/N(C)c3ccccc3C2(C)C)C(C)(C)c2ccccc21)C(=O)NC/C=C/C(=O)N(Cc1ccccc1)Cc1ccccc1.[Cl-]	Cathepsin S (Homo sapiens) (UniProt P25774)	met
